- System: L1210
- assay details: Cytotoxicity against mouse L1210 cells assessed as growth inhibition measured at 72 hrs in presence of 100 uM prednisolone by trypan blue exclusion assay
- Type: functional
- conditions used: L1210, 72 h, read-out: ED50 (the source's name)
metric: EC50 (nM)
One number for each entry, in nM.

## Task Give the measured EC50 of Nc1ccn([C@@H]2O[C@H](COP(=O)(O)O)[C@@H](O)[C@@H]2O)c(=O)n1 [CYTARABINE 5'-PHOSPHATE] .
## Result 5

====

- assay details: Drug degradation in baboon plasma at 5 umol at 37 degC after 24 hrs by UV analysis
- Format: ADME, cell-free
- conditions used: papio anubis, read-out: Drug degradation
metric: metabolised at 24 h, 5 umol
Please state the value followed by its unit.

C[C@]12C=CC(=O)C=C1CC[C@@H]1[C@@H]2[C@@H](O)C[C@@]2(C)[C@H]1CC[C@]2(O)C(=O)CO[P+]([O-])(O)OC[C@H]1O[C@@H](n2ccc(N)nc2=O)[C@@H](O)[C@@H]1O (some centres not stated) ... 39%

Let's switch to this compound now.
## Task Give the measured metabolised at 24 h, 5 umol of C[C@]12C=CC(=O)C=C1CC[C@@H]1[C@@H]2C(=O)C[C@@]2(C)[C@H]1CC[C@]2(O)C(=O)CO[P+]([O-])(O)OC[C@H]1O[C@@H](n2ccc(N)nc2=O)[C@@H](O)[C@@H]1O (some centres not stated) .
## Result 15%
